- tested_on: furin, P09958
- Sequence (P09958 whole entry): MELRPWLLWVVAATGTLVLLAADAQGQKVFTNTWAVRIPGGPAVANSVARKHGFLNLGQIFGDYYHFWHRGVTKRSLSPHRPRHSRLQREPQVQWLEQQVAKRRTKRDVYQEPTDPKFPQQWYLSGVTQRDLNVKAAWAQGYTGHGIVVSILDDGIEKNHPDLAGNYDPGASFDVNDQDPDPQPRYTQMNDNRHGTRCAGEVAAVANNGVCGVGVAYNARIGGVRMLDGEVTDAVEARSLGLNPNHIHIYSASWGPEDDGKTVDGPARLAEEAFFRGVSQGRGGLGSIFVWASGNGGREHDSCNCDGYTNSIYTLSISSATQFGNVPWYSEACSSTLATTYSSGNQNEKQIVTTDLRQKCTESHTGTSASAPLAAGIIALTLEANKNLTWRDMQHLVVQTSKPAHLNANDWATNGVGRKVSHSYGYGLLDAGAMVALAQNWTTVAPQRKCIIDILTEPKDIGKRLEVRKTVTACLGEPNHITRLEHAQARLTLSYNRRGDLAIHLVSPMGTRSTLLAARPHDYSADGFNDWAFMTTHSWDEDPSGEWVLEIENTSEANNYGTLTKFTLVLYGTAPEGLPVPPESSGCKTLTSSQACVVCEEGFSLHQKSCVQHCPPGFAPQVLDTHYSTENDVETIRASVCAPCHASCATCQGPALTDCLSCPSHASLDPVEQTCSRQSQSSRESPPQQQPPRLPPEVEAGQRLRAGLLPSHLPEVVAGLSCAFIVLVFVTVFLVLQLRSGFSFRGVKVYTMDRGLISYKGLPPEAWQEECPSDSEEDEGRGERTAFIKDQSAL
- experiment_notes: furin cleavage Z-score vs untreated control; higher = more cleavage, active = 3.5 or more, inactive = 1 or less, 8 variable residues between constant flanks;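 also: purified furin at 1:10 enzyme:substrate in 50 mM HEPES pH 7.5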
- condition_context: 7.5 min
The other results are listed elsewhere or left out. How many sequences the whole screen found active is unknown.
Think of 1 as a floor: if furin cleavage Z-score stands on it or above, it is satisfied; beneath it, not satisfied.

Before answering, review these 8 worked examples.
biopolymer_sequence: CARPRRSEKQAGNASASA [FS-1965]
label_class: satisfied

biopolymer_sequence: CAGLQDCTMLAGNASASA [HC1524]
label_class: satisfied

biopolymer_sequence: CAPLEVIKGGAGNASASA [HC851]
label_class: satisfied

biopolymer_sequence: CAALENLVILAGNASASA [HC534]
label_class: not satisfied

biopolymer_sequence: CATTKCSGSWAGNASASA [HC1874]
label_class: not satisfied

biopolymer_sequence: CARAERAARFAGNASASA [FS-185]
label_class: not satisfied

biopolymer_sequence: CAVDCCSMSYAGNASASA [HC2011]
label_class: not satisfied

biopolymer_sequence: CARRHRKKKRAGNASASA [FS-918]
label_class: not satisfied

stdin: Hello, I need to know if CALIVFPDLGAGNASASA [HC1450] has measured furin cleavage Z-score not below 1. Thanks!
stdout: not satisfied
